target: N-cadherin expressed on transfected 3T3 cells (Examples 2 and 21); test: cell-based or functional assay
Positions of bridges follow the written chain, without caps; N, C: chain ends.
// % Inhibition of neurite outgrowth, 250 µg/mL (rat neurons) lookup, one value per entry
Supply the numeric figure in %, leaving out any unit text.

These solved cases illustrate the format of a correct answer.
binder	number
Ac-CSHGVSC-NH2 (disulfide 1-7; SMILES CC(=O)N[C@H]1CSSC[C@@H](C(N)=O)NC(=O)[C@H](CO)NC(=O)[C@H](C(C)C)NC(=O)CNC(=O)[C@H](Cc2c[nH]cn2)NC(=O)[C@H](CO)NC1=O) [N-Ac-CSHGVSC-NH2]	0
Ac-CSHGVSSC-NH2 (disulfide 1-8; SMILES CC(=O)N[C@H]1CSSC[C@@H](C(N)=O)NC(=O)[C@H](CO)NC(=O)[C@H](CO)NC(=O)[C@H](C(C)C)NC(=O)CNC(=O)[C@H](Cc2c[nH]cn2)NC(=O)[C@H](CO)NC1=O) [N-Ac-CSHGVSSC-NH2]	0
Ac-CHGVC-NH2 (disulfide 1-5 (inferred)) [N-Ac-CHGVC-NH2]	0
Ac-CLRAHGVDC-NH2 (disulfide 1-9 (inferred)) [N-Ac-CLRAHGVDC-NH2]	0

Lab note: measured % Inhibition of neurite outgrowth, 250 µg/mL (rat neurons) of Ac-CHGVDC-NH2 (disulfide 1-6 (inferred)) [N-Ac-CHGVDC-NH2] was 0
